Entry source: ChEMBL document CHEMBL1154198

# Run description: ST_JUDE: Cytotoxicity using luciferase to measure ATP as an indicator of the viability of human foreskin fibroblast cells (BJ)
# Type: toxicity, cell-based
pEC50: −log10 of the molar value.
Parameter: pEC50

Cc1ccc2c(c1)N(CCO)/C(=C/c1sc3ccccc3[n+]1C)S2 | < 4.78
COc1cc(OC)c(NC(=O)C2c3ccccc3C(=O)N(CC(C)C)C2c2cccs2)cc1Cl (stereo not given) | < 4.35
CCCCn1c(=N)n(CC(O)c2ccc(Br)cc2)c2ccccc21 (stereo not given) | < 4.36
CCN1CCN(Cc2c(O)ccc3c(=O)c(Oc4ccccc4C(C)C)c(C(F)(F)F)oc23)CC1 | < 4.63
CCCO/C(O)=C1\C(C)=NC2=C(C(=O)CC(c3ccc(OC)c(OC)c3)C2)C1c1ccc(F)cc1 (stereo not given) | < 4.44

Tell me its pEC50 given `COc1ccccc1Cn1ccnc1SCC(=O)Nc1cc(C(F)(F)F)ccc1Cl` as the entry.
< 4.41

Provide measured pEC50 value, entry: `CCCCCOc1ccc(N(C(C)=O)C2=C(N3CCCCC3)C(=O)c3ccccc3C2=O)cc1`
< 4.53

Entry `Cc1cccc(N2CCN(Cc3ccccc3O)CC2)c1C` needs its pEC50 filled in; supply it.
< 4.49

Quote pEC50 reported for `CC(C)(C)c1cc(/N=N/C(=O)c2ccncc2)cc(C(C)(C)C)c1O` please.
< 4.55

Retrieve pEC50 measured for CCCO/C(O)=C1\C(C)=NC2=C(C(=O)CC(c3ccc(OC)c(OC)c3)C2)C1c1ccccc1Cl (stereo not given) and print it.
< 4.41

Given the compound `Nc1ccc(-c2nc3cc(-c4ccc5[nH]c(-c6ccc(N)cc6)nc5c4)ccc3[nH]2)cc1` , write its reported pEC50.
< 4.42

Write down pEC50 measured for item CCO/C(O)=C1\C(C)=NC2=C(C(=O)CC(c3ccc(OC)c(OC)c3)C2)C1c1ccccc1C (stereo not given)
< 4.37

Write down pEC50 measured for item CCCO/C(O)=C1\C(C)=NC2=C(C(=O)CC(c3ccc(OC)cc3)C2)C1c1ccc([N+](=O)[O-])cc1 (stereo not given)
< 4.34

* * *

# Run description: ST_JUDE: Cytotoxicity using luciferase to measure ATP as an indicator of the viability of human foreskin fibroblast cells (BJ)
# Type: toxicity, cell-based
pEC50: −log10 of the molar value.
Parameter: pEC50

Answered examples (5):
CC(=O)N(C1=C(N(C)C)C(=O)c2ccccc2C1=O)c1ccc(F)cc1 | 5.42
CCOc1ccc2nc3cc(N)ccc3c(N)c2c1 | 4.75
CSC(=S)N/N=C(\c1ccccc1)c1ccccn1 | < 4.37
Cc1ccc(NC(=O)C2c3ccccc3C(=O)N(CC(C)C)C2c2cccs2)c(Cl)c1 (configuration not stated) | < 4.36
Cc1oc2c(c1C(=O)NCCC(C)C)C(=O)c1ccccc1C2=O | < 4.37

State its pEC50 for this compound: `CCN(CC)Cc1cc(Nc2ccnc3cc(Cl)ccc23)ccc1O`
< 4.40

Query pEC50 for CC(O)(c1ccc(Cl)cc1)C(CN1CCCCC1)c1ccccc1 (configuration not stated)
< 4.30

Look up and state reported pEC50 for `CN1/C(=C/c2cccc[n+]2C)Sc2ccccc21`
< 4.55

Tell me measured pEC50 for CCOc1cc(C2CC(=O)NC3=C2C(=O)CC(c2ccc(OC)cc2)C3)cc(Cl)c1O (configuration not stated) please.
< 4.35

* * *

# Test system: Plasmodium falciparum
# Run description: ST_JUDE: Plasmodium falciparum 3D7 EC50 (uM) as measured by SYBR green dye
# Format: functional, organism-based
Collected pEC50 values appear next to each entry.
Scale explanation: pEC50 corresponds to minus log10 of a concentration expressed in moles per litre.

Cc1cccc(N2CCN(Cc3cc(Br)ccc3O)CC2)c1C | 6.37

Please list pEC50 recorded for the molecule `CN1CCN(c2nc(Nc3ccc(O)cc3)nc3ccccc23)CC1`
5.56

Answer with reported pEC50 of CCCCCCCn1c(=N)n(CC(O)COc2ccccc2)c2ccccc21 (stereo unspecified)
5.80

Tell me its pEC50 given CCOC(=O)C(NC(=O)CC)(Nc1ccc(S(=O)(=O)Nc2cc(C)on2)cc1)C(F)(F)F (stereo unspecified) as the entry.
5.35

Tell me its pEC50 given COC(=O)c1ccc(OCC2c3cc(OC)c(OC)cc3CCN2C(=O)Nc2ccccc2)cc1 (stereo unspecified) as the entry.
5.32

* * *

# Test system: Leishmania major
# Run description: ST_JUDE: Cytotoxicity using Alamar Blue to measure viability of Leishmania major
# Type: functional, organism-based
pEC50: −log10 of the molar value.
Quick list: pEC50 per entry.

Below, 5 compounds whose answers are already recorded.
CCCCCOc1ccc(N(C(C)=O)C2=C(N3CCOCC3)C(=O)c3ccccc3C2=O)cc1 | < 4.81
CC(C)NCC(O)Cn1c2ccc(Cl)cc2c2cc(Cl)ccc21 (centres undefined) | < 4.75
Cc1ccc2c(c1)N(C)/C(=C/c1sc3ccccc3[n+]1CCO)S2 | < 5.08
CCOc1ccccc1N1CCN(Cc2cc(Br)cc(OC)c2O)CC1 | < 4.80
CC(CNC(=O)c1cn(C2CCCCC2)cc(C(=O)NC(C)(C)C)c1=O)c1ccccc1 (centres undefined) | < 4.65

Please look at `Cc1oc2c(c1C(=O)NCCC(C)C)C(=O)c1ccccc1C2=O` and tell me its recorded pEC50 on Leishmania major.
< 4.74

Write down measured pEC50 (Leishmania major) for this compound. `CC(C)c1ccccc1Oc1c(C(F)(F)F)oc2c(CN3CCN(C)CC3)c(O)ccc2c1=O`
6.49

Provide measured pEC50 on Leishmania major for `COc1ccc(Nc2cc(C)c3ccc(O)cc3n2)cc1` please.
< 4.69

* * *

# Run description: ST_JUDE: Cytotoxicity using luciferase to measure ATP as an indicator of the viability of human epithelial embryonic kidney cells (HEK293)
# Assay type: toxicity, cell-based
Parameter: EC50

Cc1ccc2c(c1)N(C)/C(=C/c1cccc[n+]1C)S2 | > 23 µM
Cc1oc2c(c1C(=O)NCCC(C)C)C(=O)c1ccccc1C2=O | > 42.5 µM
Cc1ccc(NC(=O)c2c(I)cnn2C)cc1[N+](=O)[O-] | > 45.7 µM
COc1ccccc1/N=C1\C=C(NS(=O)(=O)c2ccc(C(C)C)cc2)c2ccccc2C1=O | > 34.5 µM

Please give the documented EC50 of `CCN1CCN(Cc2c(O)ccc3c(=O)c(Oc4ccccc4C(C)C)c(C(F)(F)F)oc23)CC1`
> 23.3 µM

* * *

# System: Plasmodium falciparum
# Run description: ST_JUDE: Plasmodium falciparum K1 EC50 (uM) as measured by SYBR green dye
# Format: functional, organism-based
Parameter: EC50

Below are worked cases with known answers.
CC(C)(C)c1ccc(-c2nc(-c3ccncc3)no2)cc1 | > 15 µM
O=C(NCCc1ccncc1)Nc1ccc([N+](=O)[O-])cc1 | > 15 µM
CCOC(=O)c1ccc(N2Cc3ccccc3C2)cc1O | > 15 µM
Cc1ccc(Nc2nc(NCc3ccccc3)c3ccccc3n2)cc1 | 3.6 µM
CCOc1ccc(CCNC(=O)Nc2ccc(F)cc2)cc1OCC | > 15 µM

Consider the compound CCc1nnc2n1NC(c1ccccc1)C(C(=O)Nc1ccccc1Cl)S2 (stereo unspecified) and give its recorded EC50.
> 15 µM

Determine its reported EC50: CCO/C(O)=C1\C(C)=NC2=C(C(=O)CC(c3ccc(Cl)cc3)C2)C1c1cc(F)ccc1F (stereo unspecified)
> 15 µM

Check the records and state EC50 for `CCN1/C(=C/c2sc3ccc(C(=O)OC)cc3[n+]2CC)C=Cc2cc(OC)ccc21`
0.154 µM

Identify measured EC50 associated with O=[N+]([O-])c1ccc(NC(c2ccccn2)c2ccc3cccnc3c2O)cc1 (stereo unspecified)
2.28 µM

Consider the compound CC(C)OCCNC(=O)CC1C(=O)NCCN1Cc1cccc(C(F)(F)F)c1 (stereo unspecified) and give its recorded EC50.
> 15 µM

Give me measured EC50, please, for this compound: `CCOc1ccc(Nc2nc(NCc3ccco3)c3ccccc3n2)cc1`
2.64 µM

* * *

Consider the following compounds and their measured EC50 readings.
# System: Plasmodium falciparum
# Run description: ST_JUDE: Cytotoxicity against Plasmodium falciparum V1/S
# Type: functional, organism-based

// worked examples, EC50 included
N=c1n(CCN2CCCCC2)c2ccccc2n1CC(O)c1ccc(Cl)c(Cl)c1 (stereo unspecified) | 1430 nM
Cc1cc(Nc2ccc(Br)c(C)c2)n2nc(C)nc2n1 | 296 nM
O=C1C(Nc2ccc(Br)cc2)=C(n2nnc3ccccc32)C(=O)c2ccccc21 | 32.6 nM
CCOC(=O)C1(Cc2ccccc2)CCN(Cc2cccc(OC)c2O)CC1 | 908 nM
Cc1ccc2c(c1)C=C/C(=C\c1sc3ccccc3[n+]1C)N2C | 147 nM
CCOc1ccc(N(C(C)=O)C2=C(N3CCOCC3)C(=O)c3ccccc3C2=O)cc1 | 51.5 nM
CCCCCCCn1ccc(=N)cc1 | 10300 nM
O=S(=O)(c1ccc(Cl)cc1)N1CCN(C(=S)NCc2ccco2)CC1 | 2400 nM
CCOc1ccc(/C=C2\Oc3c(ccc(O)c3CN3CCCCC3)C2=O)cc1 | 1180 nM
C[N+](C)(C)c1nc(N2CCOCC2)nc(N(c2ccccc2)c2ccccc2)n1 | 1840 nM

Look up and report measured EC50 for this entry: COc1ccc(C2CC(=O)C3=C(C2)NC(=O)CC3c2ccc(Br)cc2)cc1OC (stereo unspecified)
1780 nM

Give EC50 for COc1ccc(C2CC(=O)C3=C(C2)NC(=O)CC3c2ccc(C(F)(F)F)cc2)cc1OC (stereo unspecified)
1190 nM

Respond only with EC50 recorded for `CCCN(C(=O)C(=O)Nc1ccc2nc3n(c(=O)c2c1)CCCCC3)c1ccc(OCC)cc1`
215 nM

Return EC50 for the following compound: CCO/C(O)=C1\C(C)=NC2=C(C(=O)CC(c3ccc(OC)c(OC)c3)C2)C1c1cccc(Cl)c1 (stereo unspecified)
902 nM

Tell me measured EC50 for CC(C)c1ccc(CNCC(O)c2ccccc2)cc1 (stereo unspecified) please.
1150 nM

Return reported EC50. Input compound: `CCOc1ccc(Nc2nc(NCc3ccccc3)c3ccccc3n2)cc1`
1070 nM

Given the compound COc1ccc(NC(=O)C2c3ccccc3C(=O)N(CC(C)C)C2c2cccs2)cc1OC (stereo unspecified) , write its reported EC50.
132 nM

// Input: COCCO/C(O)=C1\C(C)=NC2=C(C(=O)CC(c3ccc(OC)c(OC)c3)C2)C1c1ccc(F)cc1 (stereo unspecified) . Output its EC50 only.
1620 nM

For the compound `CCCCOc1ccc(N(C(C)=O)C2=C(N3CCCCC3)C(=O)c3ccccc3C2=O)cc1` , report EC50.
120 nM

Please report the measured EC50 for `CCOc1ccc(/C=C/c2nc(=O)c3ccccc3o2)cc1`
601 nM

Specify reported EC50 for the compound shown: `Fc1ccc(Nc2nc(NCc3ccccc3)c3ccccc3n2)cc1`
2580 nM
